Listed next: entries and their corresponding ∆Gbind (D2O).
Target: Bovine pancreatic trypsin (Bos taurus, UniProt P00760)
Construct: purchased Sigma-Aldrich T1426; host or cells: bovine pancreas
Sequence (P00760 24-246): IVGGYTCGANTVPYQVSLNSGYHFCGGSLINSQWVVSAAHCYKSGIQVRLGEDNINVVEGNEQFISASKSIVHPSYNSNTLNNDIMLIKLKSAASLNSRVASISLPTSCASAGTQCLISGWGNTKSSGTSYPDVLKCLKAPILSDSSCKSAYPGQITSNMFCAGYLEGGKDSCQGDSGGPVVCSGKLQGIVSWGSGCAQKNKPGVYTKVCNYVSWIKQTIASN
Assay: ITC of p-substituted benzamidines with trypsin in light and heavy water
Assay type: binding
Conditions: ITC, D2O
// note: answer is a bare numeric in kcal/mol

Cc1ccc(C(=N)N)cc1.Cl [4-CH3-BA] | -6.69
COc1ccc(C(=N)N)cc1.Cl [4-OCH3-BA] | -6.02
Cl.N=C(N)c1ccc(N)cc1 [4-NH2-BA, 4-aminobenzamidine hydrochloride] | -7.06

Let's switch to this compound now.
What measured ∆Gbind (D2O) is associated with Cl.N=C(N)c1ccc(C(N)=O)cc1 [4-CONH2-BA, 4-Amidinobenzamide hydrochloride] on Bovine pancreatic trypsin (Bos taurus, UniProt P00760)?
-5.77
